Target: T1, CD134 protein (His-tagged, Sino Biological Inc. 10481-H08H) (human, UniProt P43489 29-216)
T1 construct: bought protein coated on ELISA plates; also called OX40; TNFRSF4; not shown: His tag
T1 sequence (looked up): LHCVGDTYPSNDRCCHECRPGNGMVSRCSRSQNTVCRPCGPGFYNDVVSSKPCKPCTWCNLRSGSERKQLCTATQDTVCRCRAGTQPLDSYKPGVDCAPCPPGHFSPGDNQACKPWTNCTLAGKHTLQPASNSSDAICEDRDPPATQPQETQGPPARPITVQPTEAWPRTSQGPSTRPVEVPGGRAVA
Assay: ELISA, coated His-tagged CD134; further: test concentration or dose not given here
ELISA [abs. corr.] vs 2 abs. corr.: at or above is YES, below is NO.

binder: P018.S.11.A.A06 (antibody, V domains shown, V regions on human Ig constant parts; also called AB134_23) VH: QEQLVESGGGLVQPEGSLTLTCKASGFSFSSANCMHWVRQAPEKGLQWIGCVCIGDGTTYYASWVNGRFSISATSSTTVTIQMTSLTAADTATYFCARDLGLWGPGTLVTVSS VL: AIVMTQTPSSKSVPVGDTVTINCQASESVDKYTQCSWYQQKPGQPPKLLIYYASTLASGVPSRFKGSGSGTQFTLTISDVVSDDAATYYCSGYKGGSADMIAFGGGTELVVT
discrete.label: NO
--
binder: P018.S.11.A.A05 (antibody, V domains shown, V regions on human Ig constant parts; also called AB134_22) VH: QSVEESGGRLVTPGTPLTLTCTVSGFSLNSYDMSWVRQAPGKGLEWIGFISASGSIYFANWAKGRFTISKTSTTVDLKITSPTTEDTATYFCASDSYGWAYVYYFNLWGPGTLVTVSS VL: AVVLTQTPASVSAAVGGTVTINCRASEDIGSYLGWYQQKPGQPPKLLMHDASDLASGVPSRFSGSGSGTEFTLTISGVQSDDAATYYCQSAWYSSGTDKMAFGGGTEVVVK
discrete.label: NO
--
binder: P018.S.04.A.F05 (antibody, V domains shown, V regions on human Ig constant parts; also called AB134_12) VH: QSVEESGGRLVTPGTPLTLTCTVSGIDLSSYTMGWVRQAPGKGLEYIGIIGTSGTTYYSSWAKGRFTISKTSTTVDLKITSPTTEDTATYFCARLGDDYGDFHFNLWGQGTLVTVSS VL: DLVMTQTPASVSEPVGGTVTIKCQASQNIGNYLAWYQQKPGQPPKLLIYAASNLASGVSSRFKGSGSGTEYTLTISDLESADAATYYCQCTYYDSTYFAFGGGTEVVVK
discrete.label: YES
--
binder: P018.S.12.A.F02 (antibody, V domains shown, V regions on human Ig constant parts; also called AB134_78) VH: QSLEESGGRLVTPGTPLTLTCTASGFSLIKSHINWVRQAPGKGLEWVGGIAYDDNTYYANWAKGRFTISKTSTTVDLRITSPTTADTATYFCAREDSSGWGSFNLWGQGTLVTVSS VL: AQVLTQTPSSVSAAVGGTVTISCQSSQSVYATNQLSWFQQKSGQPPKRLIYSASTLASGVSSRFKGSGSGTQFTLTISGVQSDDAATYYCQGAYDCSGGDCRAFGGGTEVVVK
discrete.label: YES
